test system: HeLa; assay: Primary qHTS to identify gynecologic anti-cancer compounds using libraries of approved drugs and bioactive compounds (AID 1345084); conditions: Gynecologic cancer cell panel viability, ATPlite luminescence, 48 h; series mostly up to 57.5 µM; note: % is set by controls: 0 for no effect and ±100 for the full control effect; nearly all actives have a fitted effect of over 55% in size
Records with an inconclusive call do not appear. Active and inactive are the calls of the source. Calls come from the whole dose curve; as a rule, active = well fitted cell-killing curve with a large enough effect; inconclusive = small, poorly fitted or top-dose-only effect, or effect the other way; inactive = flat fitted curve, though single readings scatter.
readout name: activity change, negative = cytotoxicity

Record excerpt, results attached:
compound	meas value
COC(=O)C1=COC(O[C@@H]2O[C@H](CO)[C@@H](O)[C@H](O)[C@H]2O)/C(=C\COC(=O)/C=C/c2ccccc2)C1CC(=O)OCCc1ccc(O)cc1 (stereo partly specified)	inactive
O=C(/C=C/c1ccc(O)c(O)c1)O[C@@H]1[C@@H](O)[C@H](OC2CCCCC2O)O[C@H](CO)[C@H]1O (stereo partly specified)	inactive
CC1(C)C(=O)CCC2(C)C1C(O)C=C1COC(=O)C12O (stereo unspecified)	inactive
Nc1ncnc2c1c(COc1cccc(Cl)c1)nn2C1CCOCC1	inactive
C[C@H]1[C@H](C)C[C@@H](C(=O)O)C2CC[C@]3(C)C(=CC[C@@H]4[C@@]5(C)CC[C@H](O)C(C)(C)[C@@H]5CC[C@]43C)[C@@H]21 (stereo partly specified)	inactive

Entry `CCC(=O)N1CCc2cc(OC)c(O)cc2C1` , activity change, negative = cytotoxicity reported as inactive

Recorded result, COC1CC(O[C@H]2CC[C@@]3(C)C(=CC[C@]4(O)C3[C@H](O)[C@@H](O)[C@]3(C)[C@@H]([C@H](C)O)CC[C@@]34O)C2)OC(C)C1OC1CC(OC)C(OC2CC(OC)C(OC3OC(C)C(OC4OC(CO)C(O)C(O)C4O)C(OC)C3O)C(C)O2)C(C)O1 (stereo partly specified) , activity change, negative = cytotoxicity: -0.017% [at 11.6 µM] (inactive)

activity change, negative = cytotoxicity reading for C=C1Cc2c(Cl)cc3[nH]c4c5c3c2[C@@]2(O)[C@@H]1C[C@@H]2C(C)(C)O[C@H]5C1CC[C@@]2(O)[C@@]35O[C@@H]3[C@H]3OC(C)(C)[C@H]3O[C@H]5CC[C@]2(C)[C@@]41C (stereo partly specified) : inactive

So for CC1(C)C=Cc2c(ccc3c2[N+]([O-])=C2C3(O)CC34NC(=O)C5(CCCN5C3=O)CC4C2(C)C)O1 (stereo unspecified) , the logged activity change, negative = cytotoxicity turned out to be inactive

The recorded activity change, negative = cytotoxicity for entry COC1OC(OC)C(O)(CCC2(C)C(C)CCC3(C)C2CC(O)C(O)C32CO2)C1O (stereo unspecified) equals inactive

activity change, negative = cytotoxicity reported for this compound COc1ccc(C2(O)c3c(ccc4c3OC(C)(CCC=C(C)C)C=C4)NC(=O)C2OC)cc1 (stereo unspecified) : inactive

###

assay: qHTS drug screen for cell cycle checkpoint inhibitors in PARPi-resistant BRCA-mutant ovarian cancer cell lines. (AID 1963452); conditions: PEO1/OlaR viability, CellTiter-Glo luminescence, 96 h; measured here: PEO1 parental Z-AUC; stronger effect = lower value
readout name: Z-AUC
Output spec: single numeric token, no unit.

# example entries with known answers
molecule	Z-AUC
CCC(CC)CC1(C(=O)Nc2ccccc2SC(=O)C(C)C)CCCCC1	-0.887
O=C(COCC(=O)N1CCN(C(c2ccccc2)c2ccccc2)CC1)Nc1ccc(Cl)cc1C(=O)O	1.44
N#Cc1cccc(-c2c[nH]c3ncnc(N4CCOCC4)c23)c1	0.762

// next entry
Field Z-AUC (entry COc1ccc2[nH]c(S(=O)Cc3ncc(C)c(OC)c3C)nc2c1 (centres undefined) ) reads 1.11

###

biological target: Phospholipid hydroperoxide glutathione peroxidase GPX4 (Homo sapiens) (UniProt P36969); experiment: Primary qHTS Assay for Inhibitors of Recombinant Selenoprotein Glutathione Peroxidase 4 (GPX4) (AID 1845192); conditions: recombinant GPX4, GR-coupled NADPH fluorescence, 15 min; series mostly up to 27.8 µM; note: % is set by controls: 0 for no effect and ±100 for the full control effect; nearly all actives have a fitted effect of over 65% in size
Sequence (P36969 whole entry, looked up): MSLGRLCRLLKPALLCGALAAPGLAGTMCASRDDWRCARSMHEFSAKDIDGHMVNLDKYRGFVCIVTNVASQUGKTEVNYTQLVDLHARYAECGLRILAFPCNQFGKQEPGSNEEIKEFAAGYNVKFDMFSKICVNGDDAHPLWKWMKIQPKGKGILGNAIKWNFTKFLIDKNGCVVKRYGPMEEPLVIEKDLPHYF
Results filed as inconclusive are left out. The source made the active and inactive calls. Calls come from the whole dose curve; as a rule, active = well fitted inhibition curve with a large enough effect; inconclusive = small, poorly fitted or top-dose-only effect; inactive = flat fitted curve, though single readings scatter.
readout name: activity change, negative = inhibition

molecule	experimental target	meas value
CCOC(=O)COc1ccc2c(c1)C[C@@H](NC[C@H](O)c1cccc(Cl)c1)CC2	Phospholipid hydroperoxide glutathione peroxidase GPX4 (Homo sapiens) (UniProt P36969)	inactive
CC(=O)O[C@@H](C[C@@H]1C=C(C)C(=O)O1)[C@H](C)[C@H]1CCC2[C@@]3(C)CC[C@H](O[C@@H]4O[C@H](CO)[C@@H](O)[C@H](O)[C@H]4O[C@@H]4O[C@@H](C)[C@H](O)[C@@H](O)[C@H]4O)C(C)(C)C3CC[C@@]2(C)[C@@]12COC(=O)C2 (stereo partly drawn)	Phospholipid hydroperoxide glutathione peroxidase GPX4 (Homo sapiens) (UniProt P36969)	inactive
CC1(C)CC=C(C#Cc2ccccc2)c2cc(/C=C/c3ccc(C(=O)O)cc3)ccc21	Phospholipid hydroperoxide glutathione peroxidase GPX4 (Homo sapiens) (UniProt P36969)	inactive

###

tested on: HeLa; test: Primary qHTS to identify gynecologic anti-cancer compounds using libraries of approved drugs and bioactive compounds (AID 1345084); conditions: Gynecologic cancer cell panel viability, ATPlite luminescence, 48 h; series mostly up to 57.5 µM; note: % is set by controls: 0 for no effect and ±100 for the full control effect; nearly all actives have a fitted effect of over 55% in size
Records with an inconclusive call do not appear. Calls of active or inactive are those of the source. Calls come from the whole dose curve; as a rule, active = well fitted cell-killing curve with a large enough effect; inconclusive = small, poorly fitted or top-dose-only effect, or effect the other way; inactive = flat fitted curve, though single readings scatter.

structure smiles string	experimental target	activity change, negative = cytotoxicity
CC(=O)O[C@@H]1[C@@H](O)[C@H](C)O[C@@H](O[C@H]2[C@@H]3C=CO[C@@H](O[C@@H]4O[C@H](CO)[C@@H](O)[C@H](O)[C@H]4OC(C)=O)[C@@H]3[C@@]3(CO)O[C@@H]23)[C@@H]1OC(=O)/C=C/c1ccc(O)cc1	HeLa	inactive
O=C(COCC(=O)N1CCN(C(c2ccccc2)c2ccccc2)CC1)Nc1ccc(Cl)cc1C(=O)O	HeLa	inactive
CC(=O)OCC1=C[C@@H]2OC(=O)C3=CO[C@@H](O[C@@H]4O[C@H](CO)[C@@H](O)[C@H](O)[C@H]4O)[C@H]1[C@@H]32	HeLa	inactive

###

tested on: HaCat; test: Cytotoxic Profiling of Annotated Libraries Using Quantitative High-Throughput Screening (AID 1296008); conditions: Five cell lines viability, CellTiter-Glo ATP luminescence, 48-72 h; stronger effect = lower value; note: % is set by controls: 0 for no effect and ±100 for the full control effect; nearly all actives have a fitted effect of over 60% in size
Inconclusive results are not listed.
Reported max response values for the following compounds.
The figure you give is taken to be in %; do not add the unit.

compound	experimental target	max response (%)
C[C@@H]1[C@H]2[C@H](O[C@@H]3O[C@H](CO)[C@@H](O)[C@H](O)[C@H]3O)OC=C(C(=O)O)[C@H]2C[C@@H]1OC(=O)/C=C/c1ccc(O)cc1	HaCat	-1.65
CC(C)CC(=O)OC[C@@]1(O)C[C@@]23CC[C@H]4[C@@](C)(CCC[C@@]4(C)C(=O)O)[C@@H]2CC[C@@H]1C3	HaCat	-4.56
CC1(C)C=Cc2c(ccc3c2[N+]([O-])=C2C3(O)CC34NC(=O)C5(CCCN5C3=O)CC4C2(C)C)O1 (stereo unspecified)	HaCat	-0.0821
CC1=CC23[C@H](C=C(C(=O)O)[C@@H]2COC(=O)[C@]3(O)CO)[C@@H]1C (stereo partly specified)	HaCat	-3.69
O=C(OC[C@H]1O[C@H](O[C@H]2CO[C@H](CO)[C@@H](O)[C@@H]2O)[C@H](O)[C@@H](O)[C@H]1O)c1ccccc1	HaCat	-15.9

Lab note: CC1(C)CC[C@]2(C(=O)O)CC[C@]3(C)C(=CCC4[C@@]5(C)CC[C@H](O[C@@H]6O[C@H](C(=O)O)[C@@H](O)[C@H](O)[C@H]6O)C(C)(C)C5CC[C@]43C)C2C1 (stereo partly specified) gave max response of -12.1

The value of max response measured for the compound `CC[C@@H](Nc1c(Nc2cccc(C(=O)N(C)C)c2O)c(=O)c1=O)c1ccc(C)o1` turned out to be -4.91

In plain terms, CC(=O)OCC1OC(O[C@H]2CC[C@]34C[C@]35CC(O)[C@]3(C)[C@@H]([C@H](C)CC/C=C(\C)C(=O)O)C(O)C[C@@]3(C)C5CC[C@H]4C2(C)C)C(O)C(O)C1OC1OCC(O)C(O)C1O (stereo partly specified) has a documented max response of 2.3

Reported max response ( `COc1ccc(C(=O)NCc2cc(C(C)C)no2)cc1OC1CCN(C)CC1` ) = 4.96

GET /value?item= CC1CC=C2C1CC1(O)C(=O)CC2(C)C1(C)CO (stereo unspecified) &field=max response returns 4.08

The reported value for `COC(=O)C[C@@H]1C(C(=O)O)=CO[C@@H](O[C@@H]2O[C@H](CO)[C@@H](O)[C@H](O)[C@H]2O)/C1=C\COC(=O)/C=C/c1ccc(O)c(OC)c1` in terms of max response is -1.38

Input `CCCNCCOc1ccc(NC(=O)c2c[nH]c3c2C(=O)CCC3)cc1F` . Output max response: -4.5

Reported max response of `O=C1NC(=O)/C(=C/c2cccc(C(F)(F)F)c2)S1` : 3.45

The compound identified as `O=C(CCc1ccccc1)c1c(O)c([C@@H]2O[C@H](CO)[C@@H](O)[C@H](O)[C@H]2O)c(O)c([C@@H]2O[C@H](CO)[C@@H](O)[C@H](O)[C@H]2O)c1O` registered its max response at 3.51

max response recorded for this compound, `CC/C=C\[C@H](O)[C@H](O)C1=C(C)C(=O)[C@]2(O1)C(=O)N[C@@](O)(C(=O)c1ccccc1)[C@@H]2O` , is -6.31

Lookup result for `Cc1ccc(Cl)cc1N(CC(=O)Nc1c(F)cccc1F)S(C)(=O)=O` ; measured max response: -2.84

The reported value for CC(=O)NCC1CN(c2ccc(-c3ccc(CNCc4cn[nH]n4)cc3)c(F)c2)C(=O)O1 (stereo unspecified) in terms of max response is 1.71

max response reported for this compound C=C1C(OC(C)=O)CCC2(C)CCC(C(C)(C)O)CC12 (stereo unspecified) : -5.19
